Experiment: Half life in rat at 10 mg/kg, po
Format: ADME, organism-based
Conditions: in vivo
endpoint_name: half-life (min)
Write down the numeric answer in min and omit the unit.

-- ask Look up half-life for this compound: `COc1cc(OC)cc(-c2cncc(-c3nc4cc(C)ccc4[nH]3)c2N2CCC(N)CC2)c1`
-- reply 390

----------
Test: Half life in rat at 1 mg/kg, iv
Type: ADME, organism-based
Details: in vivo
Items are presented alongside their recorded half-life.
Write down the numeric answer in h and omit the unit.

Cc1cc(C(=O)Nc2cncc(-c3cc(Cl)cc(Cl)c3)c2N2CCC(N)CC2)n(C)n1 ... 6.1

Query compound follows.
-- ask Look up half-life for this compound: `COc1cc(OC)cc(-c2cncc(-c3nc4cc(C)ccc4[nH]3)c2N2CCC(N)CC2)c1`
-- reply 5.8

----------
Items are presented alongside their recorded half-life.
Assay: Half life in rat at 3 mg/kg, po
Format: ADME, organism-based
Conditions: in vivo
Write down the numeric answer in h and omit the unit.

COc1cc(OC)cc(-c2cncc(-c3nc4cc(C)ccc4[nH]3)c2N2CCC(N)CC2)c1 ... 6.5

Query compound follows.
-- ask Look up half-life for this compound: `Cc1cc(C(=O)Nc2cncc(-c3cc(Cl)cc(Cl)c3)c2N2CCC(N)CC2)n(C)n1`
-- reply 5.6

----------
Assay: Cmax in rat at 3 mg/kg, po
Type: ADME, organism-based
Set-up: route oral, dose 3 mg/kg
Settings: in vivo
endpoint_name: Cmax (ng/mL)
Write down the numeric answer in ng/mL and omit the unit.

COc1cc(OC)cc(-c2cncc(-c3nc4cc(C)ccc4[nH]3)c2N2CCC(N)CC2)c1 ... 56.6

-- ask Look up Cmax for this compound: `Cc1cc(C(=O)Nc2cncc(-c3cc(Cl)cc(Cl)c3)c2N2CCC(N)CC2)n(C)n1`
-- reply 32.1

----------
Items are presented alongside their recorded Tmax.
Assay: Tmax in rat at 3 mg/kg, po
Type: ADME, organism-based
Conditions: in vivo

Cc1cc(C(=O)Nc2cncc(-c3cc(Cl)cc(Cl)c3)c2N2CCC(N)CC2)n(C)n1 ... 2.3 h

-- ask Look up Tmax for this compound: `COc1cc(OC)cc(-c2cncc(-c3nc4cc(C)ccc4[nH]3)c2N2CCC(N)CC2)c1`
-- reply 0.5 h

----------
Assay: Half life in rat liver microsomes measured up to 60 mins in presence of NADPH by LC-MS/MS analysis
Assay type: ADME, Microsome
endpoint_name: half-life

Cc1cc(C(=O)Nc2cncc(-c3cc(Cl)cc(Cl)c3)c2N2CCC(N)CC2)n(C)n1 ... > 3.33 h

Query compound follows.
-- ask Look up half-life for this compound: `COc1cc(OC)cc(-c2cncc(-c3nc4cc(C)ccc4[nH]3)c2N2CCC(N)CC2)c1`
-- reply > 3.33 h

----------
Assay: Tmax in rat at 10 mg/kg, po
Assay type: ADME, organism-based
Settings: in vivo
endpoint_name: Tmax (min)
Write down the numeric answer in min and omit the unit.

-- ask Look up Tmax for this compound: `COc1cc(OC)cc(-c2cncc(-c3nc4cc(C)ccc4[nH]3)c2N2CCC(N)CC2)c1`
-- reply 30

----------
Assay: AUC (0 to 24 hrs) in rat at 3 mg/kg, po
Type: ADME, organism-based
Parameters: time < 24 hr, route oral, dose 3 mg/kg
Conditions: in vivo
endpoint_name: AUC(0-t) at 24 h (ng·h/mL)
Write down the numeric answer in ng·h/mL and omit the unit.

Cc1cc(C(=O)Nc2cncc(-c3cc(Cl)cc(Cl)c3)c2N2CCC(N)CC2)n(C)n1 ... 271

-- ask Look up AUC(0-t) at 24 h for this compound: `COc1cc(OC)cc(-c2cncc(-c3nc4cc(C)ccc4[nH]3)c2N2CCC(N)CC2)c1`
-- reply 291
